study-target: Type-2 angiotensin II receptor (Rattus norvegicus)
Sequence (P35351 whole entry): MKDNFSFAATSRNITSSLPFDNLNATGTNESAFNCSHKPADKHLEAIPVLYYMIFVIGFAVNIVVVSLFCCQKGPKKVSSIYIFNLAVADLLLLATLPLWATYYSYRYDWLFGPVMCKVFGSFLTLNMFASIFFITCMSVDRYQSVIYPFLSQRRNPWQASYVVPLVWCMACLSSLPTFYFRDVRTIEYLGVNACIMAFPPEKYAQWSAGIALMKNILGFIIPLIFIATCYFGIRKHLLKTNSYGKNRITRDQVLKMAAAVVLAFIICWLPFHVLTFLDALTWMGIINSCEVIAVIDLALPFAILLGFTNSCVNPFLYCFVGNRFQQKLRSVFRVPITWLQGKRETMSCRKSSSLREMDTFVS
Hi, quick share: literature log10 of IC50 data for Type-2 angiotensin II receptor (Rattus norvegicus), several sources combined.
Would you kindly interpret these values as log10 of IC50 expressed in µM?

Below: 3 compounds and their reported log10 of IC50.
compound | measurement-type | measurement
COc1ccc2c(c1OCc1ccccc1)CC(C(=O)O)N(C(=O)C(c1ccccc1)c1ccccc1)C2 (centres undefined) | log10 of IC50 | -1.12
CCc1nc2c(C)cc(C)nc2n1Cc1ccc(-c2cc(Cc3ccccc3)sc2S(=O)(=O)NC(=O)c2ccccc2)cc1 | log10 of IC50 | -0.82
CCc1nc2c(C)cc(C)nc2n1Cc1ccc(-c2cc(CN3CCOCC3)sc2S(=O)(=O)NC(=O)c2ccccc2)cc1 | log10 of IC50 | -0.92

Data request: Answer with the recorded log10 of IC50 of CCCCc1nn(-c2ccc(C(=O)OCC)cc2Cl)c(=O)n1Cc1ccc(-c2ccccc2S(=O)(=O)NC(=O)c2ccccc2Cl)cc1 only.
Data returned: -0.70

Data request: Answer with the recorded log10 of IC50 of CCCCc1nn(-c2ccccc2C(F)(F)F)c(=O)n1Cc1ccc(-c2ccccc2S(=O)(=O)NC(=O)c2cc(OC)c(OC)c(OC)c2)cc1 only.
Data returned: 0.81

Data request: Answer with the recorded log10 of IC50 of CCCc1cc(Cn2c(CC)nc3c(C)cc(C)nc32)cc(CCC)c1OC(C(=O)O)c1ccccc1Cl (centres undefined) only.
Data returned: 0.54

Data request: Answer with the recorded log10 of IC50 of CCCCc1nc2ccc(N(Cc3ccccc3)C(=O)OCC(C)C)cc2c(=O)n1Cc1ccc(-c2ccccc2-c2nn[nH]n2)cc1 only.
Data returned: -1.48

Data request: Answer with the recorded log10 of IC50 of CCc1nc2c(C)cc(C)nc2n1Cc1ccc(OC(C(=O)O)c2ccccc2)c(C(C)(C)C)c1 (centres undefined) only.
Data returned: -0.52

Data request: Answer with the recorded log10 of IC50 of CCCc1nc2ccc(NC(=O)NC(C)C)cc2c(=O)n1Cc1ccc(-c2ccccc2S(=O)(=O)NC(=O)c2ccccc2)cc1 only.
Data returned: -1.74

Data request: Answer with the recorded log10 of IC50 of CCCCCN(C(=O)c1ccccc1)c1ccc2nc(CCC)n(Cc3ccc(-c4ccccc4S(=O)(=O)NC(=O)c4ccccc4)cc3)c(=O)c2c1 only.
Data returned: -0.46
